inhibition: recorded values
Test: CRL2098 osteosarcoma cell growth inhibition, synergistic combos for chromothripsis tumors, BGB or cisplatin IC20 combos (AID 1671454);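 note: cells exposed for 96 h before readout; 0% = vehicle DMSO and 100% = killing by high DMSO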
Settings: CRL2098 osteosarcoma cells, drug combinations, measured here: combination with BGB at IC20, at 0.5 µM, stronger effect = higher value
MEASURED QUANTITY: inhibition (%)

- O=c1[nH]c(=O)n([C@H]2C[C@H](O)[C@@H](CO)O2)cc1Br: -5.25
- O=c1[nH]c(=O)n([C@H]2C[C@H](O)[C@@H](CO)O2)cc1C(F)(F)F: -90.6
- Cc1ccc2nc(N)[nH]c(=O)c2c1Sc1ccncc1: -72.3
- O=c1c(O)c(-c2ccc(O)c(O)c2)oc2cc(O)ccc12: -8.68
- CN(N=O)C(=O)NC1C(O)OC(CO)C(O)C1O (configuration not stated): -31.6
- COc1c2ccoc2cc2oc(=O)ccc12: -48
- CN1C[C@@H]2C[C@H]1CN2c1cc2c(cc1F)c(=O)c(C(=O)O)cn2C1CC1: -121
- CNC1CCCN(c2c(F)cc3c(=O)c(C(=O)O)cn(C4CC4)c3c2OC)C1 (configuration not stated): -82.3
- CN1CCN(c2c(F)cc3c(=O)c(C(=O)O)cn(CCF)c3c2F)CC1: -0.381
- N=c1ccn2c(n1)O[C@H]1[C@H](O)[C@@H](CO)O[C@H]12: -10.4
- COC1C(OC(N)=O)C(O)C(Oc2ccc3c(O)c(NC(=O)c4ccc(O)c(CC=C(C)C)c4)c(=O)oc3c2C)OC1(C)C (configuration not stated): -45.3
- O=C(CCCCCCC(=O)Nc1ccccc1)NO: -78.4
